Data origin, for the record: patent US10597388B2

Test system: ragweed (common ragweed, Ambrosia elatior)
TEST METHOD NOTES: Test A greenhouse herbicide test, pre- and postemergence
Format: in vivo
TEST CONTEXT: Preemergence, 500 g ai/ha; 0 to 100 scale where 0 is no effect and 100 is complete control
Consider the following compounds; for each one, report its Plant response rating, Ragweed.
Give the figure only, with no unit attached.

Challenge: Quick one: Plant response rating, Ragweed for `Cc1cc(C)c2ccccc2c1-c1c(OS(C)(=O)=O)c(C)nn(C)c1=O` ?
Response given: 90

Challenge: Quick one: Plant response rating, Ragweed for `Cc1nn(C)c(=O)c(-c2c(C)sc3ccc(Cl)cc23)c1O` ?
Response given: 100

Challenge: Quick one: Plant response rating, Ragweed for `CC(=O)Oc1c(C)nn(C)c(=O)c1-c1ccc(F)c2ccccc12` ?
Response given: 100

Challenge: Quick one: Plant response rating, Ragweed for `COc1nn(C)c(=O)c(-c2c(C)sc3ccc(Cl)cc23)c1O` ?
Response given: 80

Challenge: Quick one: Plant response rating, Ragweed for `Cc1nn(C)c(=O)c(-c2ccc(Cl)c3ccccc23)c1OS(=O)(=O)N(C)C` ?
Response given: 40

Challenge: Quick one: Plant response rating, Ragweed for `CSCC(=O)Oc1c(C)nn(C)c(=O)c1-c1cccc2ccccc12` ?
Response given: 90

Challenge: Quick one: Plant response rating, Ragweed for `CC(=O)Oc1c(C)nn(C)c(=O)c1-c1c(C)cc(C)c2ccccc12` ?
Response given: 90

Challenge: Quick one: Plant response rating, Ragweed for `CC(=O)Oc1c(Br)nn(C)c(=O)c1-c1c(C)ccc2ccccc12` ?
Response given: 90

Challenge: Quick one: Plant response rating, Ragweed for `COc1nn(C)c(=O)c(-c2c(C)ccc3ccccc23)c1OC(C)=O` ?
Response given: 100

###

Consider the following molecules; for each one, report its Plant response rating, Field Poppy.
Test system: field poppy (Papaver rhoeas)
TEST METHOD NOTES: Test D controlled growth environment herbicide test, pre- and postemergence
Type: in vivo
TEST CONTEXT: Preemergence, 62 g ai/ha; scale 0 to 100 (0 no effect, 100 complete control)
Give the figure only, with no unit attached.

Challenge: Quick one: Plant response rating, Field Poppy for `Cc1ccc(-c2c(O)c(Br)nn(C)c2=O)c2ccccc12` ?
Response given: 0

Challenge: Quick one: Plant response rating, Field Poppy for `CCC(=O)Oc1c(C)nn(C)c(=O)c1-c1c(C)sc2c(C)cc(C)cc12` ?
Response given: 95

Challenge: Quick one: Plant response rating, Field Poppy for `CC(=O)Oc1c(C)nn(C)c(=O)c1-c1c(C)sc2ccc(C)cc12` ?
Response given: 100

Challenge: Quick one: Plant response rating, Field Poppy for `COc1nn(C)c(=O)c(-c2c(C)ccc3ccccc23)c1O` ?
Response given: 55

Challenge: Quick one: Plant response rating, Field Poppy for `CC(=O)Oc1c(C)nn(C)c(=O)c1-c1c(C)sc2c(C)cc(C)cc12` ?
Response given: 100

###

Consider the following molecules; for each one, report its Plant response rating, Barnyardgrass.
Test system: barnyardgrass (Echinochloa crus-galli)
TEST METHOD NOTES: Test C greenhouse herbicide test, pre- and postemergence
Type: in vivo
TEST CONTEXT: Postemergence, 31 g ai/ha; scale 0 to 100 (0 no effect, 100 complete control)
Give the figure only, with no unit attached.

Challenge: Quick one: Plant response rating, Barnyardgrass for `CC(=O)Oc1c(Br)nn(C)c(=O)c1-c1c(C)ccc2ccccc12` ?
Response given: 50

Challenge: Quick one: Plant response rating, Barnyardgrass for `Cc1nn(C)c(=O)c(-c2c(C)sc3ccc(Cl)cc23)c1O` ?
Response given: 20

Challenge: Quick one: Plant response rating, Barnyardgrass for `COC(=O)Oc1c(C)nn(C)c(=O)c1-c1c([N+](=O)[O-])ccc2ccccc12` ?
Response given: 10

Challenge: Quick one: Plant response rating, Barnyardgrass for `CSCC(=O)Oc1c(C)nn(C)c(=O)c1-c1cccc2ccccc12` ?
Response given: 15
